# System: biotinyl-Ile-oxazolone
# Experiment summary: self-aminoacylation, catalytic enhancement (BIO) (fold over background); higher = more active; k-Seq, kA / k0A0; sequences stand for … in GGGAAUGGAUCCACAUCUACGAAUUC…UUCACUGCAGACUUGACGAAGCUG
This sample holds only a part of the variants without activity.

Seq string | self-aminoacylation
AAGUUUGCUAAUACUCUCAAG [Fam3.1 aminoacylation ribozyme variant] | 0.693
AUUCACCAAGGUCAUUGGGUG [Fam2.2 aminoacylation ribozyme variant] | 4.07
ACACACUUCAAGCAAUCGUUC [Fam1B.1 aminoacylation ribozyme variant] | 1.02
AAGUUUGCUAAAAGUCACAAG [Fam3.1 aminoacylation ribozyme variant] | 1.35
AUUACCCUCGUCAUCGAGUGG [Fam2.1 aminoacylation ribozyme variant] | 0.948
AUUCACCUAGCUCUUCGGGUG [Fam2.2 aminoacylation ribozyme variant] | 2.08
ACCACCCUGGUCAUCGAGUGA [Fam2.1 aminoacylation ribozyme variant] | 4.75
CUACUUCAACCAAUAGGUCUG [Fam1A.1 aminoacylation ribozyme variant] | 0.947
AUUACCCUGGGCAUCGAUUGA [Fam2.1 aminoacylation ribozyme variant] | 0.645
AAGUUUGCUAGGAGUCGCAAG [Fam3.1 aminoacylation ribozyme variant] | 0.788
AAGUUUGCUAACAGUCUCAAG [Fam3.1 aminoacylation ribozyme variant] | 0.979
CCACACUUCAACCUAUCGGUC [Fam1B.1 aminoacylation ribozyme variant] | 1.02
CUUGACCUAGGUCAUCGGGUG [Fam2.2 aminoacylation ribozyme variant] | 3.43
AAUCACCUAGGUCAUUGGGUG [Fam2.2 aminoacylation ribozyme variant] | 2.94
AUUACCCUCGUCAUCGAGUGA [Fam2.1 aminoacylation ribozyme variant] | 2.08
CUACUUCAAACAAUCGUUCCG [Fam1A.1 aminoacylation ribozyme variant] | 0.724
AUUAGCCUUGUCAUCGAGUGA [Fam2.1 aminoacylation ribozyme variant] | 2.85
AUAACCCUUGUCAUCGAGUGA [Fam2.1 aminoacylation ribozyme variant] | 3.29

Hey, just so you know, these numbers are from the supplement of paper PMC9233669.
